B1: ZNF649 (parent)
chain: EHERAHRGEKPHGCSLCGKAFYKR

variants of: B1; test: protein stability index of a GFP-peptide fusion (GPS, HEK-293T) (PSI 1-6); higher = more stable; details: c terminus: a fixed tail appended;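 also: lentivirally expressed fusions sorted by FACS into six bins by GFP to DsRed ratio, PSI derived from sequencing read proportions per bin multiplied by bin number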
Below is a list of entries, each paired with its recorded protein stability index value.

| variant_key | protein stability index |
| --- | --- |
| R24F | 2.65 |
| C14N | 4.12 |
| C17E | 2.58 |
| H6L | 1.61 |
| K10Y | 1.7 |
| K19V | 1.44 |
| C17Y | 2.48 |
| H2P | 1.98 |
| C14G | 4.18 |
| R24C | 4.03 |
| K19N | 2.43 |
| G8F | 2.22 |
| K23R | 3.06 |
| C17V | 3.18 |
| E9N | 1.85 |
| F21P | 2.74 |
| R7C | 1.65 |
| H2I | 2 |
| K23Q | 2.24 |
| A5W | 1.62 |
| H2D | 2 |
| K19D | 2.13 |
| C14S | 4.83 |
| K23T | 2.8 |
| H6D | 2.01 |
| K10T | 3.02 |
| K19A | 1.61 |
| G13T | 2.42 |
| G8Q | 3.17 |
| H2S | 1.75 |
| F21D | 2.34 |
| R24S | 4.19 |
| A5C | 2.8 |
| R4V | 2.93 |
| K19I | 1.61 |
| P11W | 1.9 |
| L16E | 3.8 |
| Y22V | 1.36 |
| R24A | 3.46 |
| H6N | 2.06 |
| Y22A | 2.22 |
| F21V | 2.01 |
| R4A | 1.97 |
| S15V | 1.67 |
| L16Q | 3.02 |
| E3I | 1.78 |
| K19H | 2.44 |
| G18I | 1.67 |
| G8T | 1.91 |
| E9I | 1.86 |
| R7Y | 1.82 |
| A5H | 2.23 |
| F21L | 3.61 |
| R4G | 2.55 |
| R7I | 1.69 |
| F21S | 2.13 |
| E3A | 1.5 |
| S15I | 2.01 |
| A20D | 2.51 |
| K23M | 3 |
| C17T | 4.48 |
| H6K | 1.04 |
| C17L | 3.64 |
| G8S | 1.99 |
| F21T | 2.14 |
| S15W | 1.72 |
| G13Y | 3.31 |
| K10I | 1.69 |
| P11Y | 2.01 |
| K10Q | 3.07 |
| S15Y | 2.48 |
| G13A | 2.43 |
| R7D | 1.98 |
| E1Q | 2.07 |
| H2F | 2.8 |
| R7N | 3.32 |
| E1N | 1.69 |
| C17I | 3.81 |
| K23D | 1.9 |
| A20Y | 1.75 |
| G18E | 2.77 |
| Y22P | 1.52 |
| R4N | 2.23 |
| C17Q | 4.46 |

# credit: the supplement of paper PMC10567573
